Origin of measurements: patent US12060355B2

Tested on: human HepG2 cell lines
Assay type: cell-based
assay_context: human HepG2 cell line
Listed next: entries and their corresponding Cytotox HepG2.
metric: Cytotox HepG2 (µM)

INSERT INTO results (compound_structure_string, experimental_target, unit_abbrev, comparison_sign, result) VALUES
  ('Cc1nc2cnc(-c3ccc(F)c(C(F)(F)F)c3)cn2c1-c1ccc(O)cc1F', 'human HepG2 cell lines', 'µM', '>', 11.1),
  ('Fc1c(-c2c(C(F)(F)F)nc3cnc(-c4ccnc(C(F)(F)F)c4)cn23)ccc2[nH]ncc12', 'human HepG2 cell lines', 'µM', '=', 7.0),
  ('Cc1nc2cnc(-c3ccc(F)c(C(F)(F)C(F)(F)F)c3)cn2c1-c1c(F)cc(O)cc1F', 'human HepG2 cell lines', 'µM', '=', 8.8),
  ('CC(C)c1cc(-c2cn3c(-c4ccc5[nH]ncc5c4F)c(C(F)(F)F)nc3cn2)ccn1', 'human HepG2 cell lines', 'µM', '=', 9.5),
  ('COc1ccc(-c2c(C(C)C)nc3cnc(-c4cccc(C(F)(F)F)c4)cn23)cc1O', 'human HepG2 cell lines', 'µM', '>', 11.1),
  ('Cc1nc2cnc(-c3ccc(F)c(C(F)(F)F)c3)cn2c1-c1c(F)cc(O)cc1F', 'human HepG2 cell lines', 'µM', '=', 7.6),
  ('CC(C)c1nc2cnc(-c3ccc(F)c(C(F)(F)F)c3)cn2c1-c1c(F)cc(OP(=O)(O)O)cc1F', 'human HepG2 cell lines', 'µM', '=', 6.5),
  ('CC(C)c1nc2cnc(-c3ccc(F)c(C(F)(F)F)c3)cn2c1-c1ccc2[nH]ncc2c1F', 'human HepG2 cell lines', 'µM', '=', 10.4),
  ('Cc1nc2cnc(-c3cccc(C(F)(F)F)c3)cn2c1-c1c(F)cc(O)cc1F', 'human HepG2 cell lines', 'µM', '=', 8.4),
  ('CCc1nc2cnc(-c3ccc(F)c(C(F)(F)F)c3)cn2c1-c1ccc2[nH]ncc2c1F', 'human HepG2 cell lines', 'µM', '=', 13.1),
  ('Cc1nc2cnc(-c3cccc(C(F)(F)C(F)(F)F)c3)cn2c1-c1c(F)cc(O)cc1F', 'human HepG2 cell lines', 'µM', '=', 9.3),
  ('CC(C)c1cccc(-c2cn3c(-c4ccc5[nH]ncc5c4F)c(C(F)(F)F)nc3cn2)c1', 'human HepG2 cell lines', 'µM', '=', 12.9),
  ('CC(C)c1nc2cnc(-c3cccc(C(F)(F)F)c3)cn2c1-c1ccc2[nH]ncc2c1F', 'human HepG2 cell lines', 'µM', '=', 15.1),
  ('Oc1cc(F)c(-c2c(C3CC3)nc3cnc(-c4ccc(F)c(S(F)(F)(F)(F)F)c4)cn23)c(F)c1', 'human HepG2 cell lines', 'µM', '=', 10.1),
  ('CC(C)c1nn2cnc(-c3cccc(C(F)(F)F)c3)cc2c1-c1c(F)cc(O)cc1F', 'human HepG2 cell lines', 'µM', '=', 8.4),
  ('CC(C)c1nn2cnc(-c3ccc(F)c(C(F)(F)C(F)(F)F)c3)cc2c1-c1ccc2[nH]ncc2c1F', 'human HepG2 cell lines', 'µM', '=', 10.8);
